# credit: the supplement of paper PMC10567573

# reported protein stability index; entries follow
B1: BTBD10 (parent)
chain: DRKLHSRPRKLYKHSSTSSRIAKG

variants of: B1; experiment: protein stability index of a GFP-peptide fusion (GPS, HEK-293T) (PSI 1-6); higher = more stable; details: c terminus: a fixed tail appended;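 also: lentivirally expressed fusions sorted by FACS into six bins by GFP to DsRed ratio, PSI derived from sequencing read proportions per bin multiplied by bin number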
Please state the value as a number alone, without comment.

S6A
3.67
R20E
4.04
P8T
3.31
L4P
4.11
K3R
3.63
K23R
3.27

Query: Which value of protein stability index has been reported for R2Q in the records?
Response: 4.19

Query: Which value of protein stability index has been reported for K23G in the records?
Response: 4.08

Query: Which value of protein stability index has been reported for R7Y in the records?
Response: 3.83

Query: Which value of protein stability index has been reported for S6N in the records?
Response: 4.04

Query: Which value of protein stability index has been reported for H5S in the records?
Response: 4.34

Query: Which value of protein stability index has been reported for R9Y in the records?
Response: 3.64
